Numbers sourced from PubChem BioAssay (NCATS).

assay: AP1 Signaling Pathway (AID 357); conditions: ME-180 (cervical carcinoma) AP-1-bla reporter, EGF-induced, beta-lactamase ratio, 5 h; at 7.69 µM (top of the series) unless noted;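 note: ME-180 reporter cells stimulated with EGF at its EC50 level; % is set by controls: 0 for no effect and ±100 for the full control effect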
Inconclusive results are not listed. Activity calls are given as the source filed them. Calls come from the whole dose curve; as a rule, active = well fitted curve in either direction with a large enough effect (not every such curve was filed as active); inconclusive = small, poorly fitted or top-dose-only effect, or another doubt; inactive = flat fitted curve, though single readings scatter.
recorded endpoint: activity change, negative = inhibition

Solved cases (4 shown):
molecule	experimental value
Cc1c(NC(=O)Nc2c(Cl)cccc2Cl)c(=O)n(-c2ccccc2)n1C	4.18% (inactive)
CN(C)[C@H]1C(=O)C(C(=O)NCN2CCCC2)=C(O)[C@]2(O)C(=O)C3=C(O)c4c(O)cccc4[C@](C)(O)[C@H]3C[C@H]12	-4.67% (inactive)
C[C@H]1CCCC=CC2C[C@H](OC(=O)CN(C)C)C[C@@H]2[C@@H](O)/C=C\C(=O)O1 (some centres not stated)	-7.78% (inactive)
Cc1ccc(S(=O)(=O)N[C@H](CO)C(=O)O)cc1	1.84% (inactive)

What value of measured activity change, negative = inhibition is listed for "COc1cc2nc(N3CCN(C(=O)OCc4ccccc4)[C@H](C(=O)NC(C)(C)C)C3)nc(N)c2cc1OC" ?
-7.79% [at 38 µM] (inactive)

I am curious: what activity change, negative = inhibition value has been reported for "COc1cc2c3cc1Oc1cc(ccc1O)C[C@@H]1c4c(cc(OC)c(O)c4Oc4ccc(cc4)C[C@H]3[N+](C)(C)CC2)CC[N+]1(C)C" ?
5.87% (inactive)

What does the record list as activity change, negative = inhibition for "O=C(O)c1ccc(Nc2ccnc3cc(Cl)ccc23)cc1O" ?
-7.31% (inactive)
